molecular target: the molecule itself; assay: SEC; analytic Superdex 200 10/300 GL; 1 mg/ml; 50 mM HEPES, 150 mM NaCl, 1 mM DTT, 1 mM EDTA, 5% glycerol, pH 8.0; 0.3 ml/min, 16°C; mass calculated from the elution volume
readout-kind: stoichiometry N

// query Returns the measured stoichiometry N for the input protein. Input: AmnE P126A (enzyme, Pseudomonas sp. AP-3, UniProt Q9KWS2 1-142, looked up, 2-aminomuconate deaminase AmnE, Pseudomonas sp; AP-3, as m1 with P126A; The purification, including tag cleavage, is described once for the wild type and the mutants together; Hexamer by SEC; also called mutant AmnE P126A; source: E. coli BL21 (DE3) pLysS, purified (Ni-NTA, Resource Q, Superdex 75); not shown: His6, N-terminal, cleaved) MVSKADNSAKLVEGKAKPMGSFPHVKRAGDFLFVSGTSSRRPDNTFVGAEPDDTGRPRPNIELQTREVISNIRDILQSVGADLGDVVEVCSYLVNMNDFAAYNKVYAEFFDATGPARTTVAVHQLAHPQLVIEIKVVAYKPL
// result 6

// query Data request, read-out stoichiometry N, for AmnE R56A (enzyme, Pseudomonas sp. AP-3, UniProt Q9KWS2 1-142, looked up, 2-aminomuconate deaminase AmnE, Pseudomonas sp; AP-3, as m1 with R56A; The purification, including tag cleavage, is described once for the wild type and the mutants together; Trimer by SEC; also called single mutant of AmnE R56A; source: E. coli BL21 (DE3) pLysS, purified (Ni-NTA, Resource Q, Superdex 75); not shown: His6, N-terminal, cleaved) MVSKADNSAKLVEGKAKPMGSFPHVKRAGDFLFVSGTSSRRPDNTFVGAEPDDTGAPRPNIELQTREVISNIRDILQSVGADLGDVVEVCSYLVNMNDFAAYNKVYAEFFDATGPARTTVAVHQLPHPQLVIEIKVVAYKPL
// result 3

// query Quick one: stoichiometry N for AmnEΔ49–59 (enzyme, Pseudomonas sp. AP-3, UniProt Q9KWS2 1-142, looked up, 2-aminomuconate deaminase AmnE, Pseudomonas sp; AP-3, as m1 with residues Ala49-Pro59 of loop Lp2 deleted; The purification, including tag cleavage, is described once for the wild type and the mutants together; Trimer by SEC; also called AmnEΔLp2 (residues Ala49–Pro59); truncated mutant AmnEΔ49–59; source: E. coli BL21 (DE3) pLysS, purified (Ni-NTA, Resource Q, Superdex 75); not shown: His6, …) MVSKADNSAKLVEGKAKPMGSFPHVKRAGDFLFVSGTSSRRPDNTFVGNIELQTREVISNIRDILQSVGADLGDVVEVCSYLVNMNDFAAYNKVYAEFFDATGPARTTVAVHQLPHPQLVIEIKVVAYKPL ?
// result 3

// query Query: stoichiometry N; subject: 2-aminomuconate deaminase (AmnE) from Pseudomonas sp. AP-3, wild type (enzyme, UniProt Q9KWS2 1-142, looked up, 2-aminomuconate deaminase AmnE, Pseudomonas sp; AP-3; protomer of 142 residues; Hexamer made of two trimers, by crystal structure, SEC and cross-linking; the database entry may name the gene amnD; After thrombin cleavage a few vector residues may remain at the N-terminus (surmised); also called wild-type AmnE; source: E. coli BL21 (DE3) pLysS, purified (Ni-NTA, Resource Q, Superdex 75); not …) MVSKADNSAKLVEGKAKPMGSFPHVKRAGDFLFVSGTSSRRPDNTFVGAEPDDTGRPRPNIELQTREVISNIRDILQSVGADLGDVVEVCSYLVNMNDFAAYNKVYAEFFDATGPARTTVAVHQLPHPQLVIEIKVVAYKPL
// result 6
